Organism: Rattus norvegicus
Experiment: Tested for noncumulative contractile concentration -response curves for serotonin in the rat fundus.
Format: functional
readout type: -Log KB
No unit in the answer, please; the number alone is enough.

molecule=CCCn1c(C)c(CC)c2cc(N(C)C)ccc21 value_reported=6.57
molecule=Cc1c(C)n(C)c2ccc(N(C)C)cc12 value_reported=6.71
molecule=CCc1c(C)c2cc(N(C)C)ccc2n1C value_reported=6.69

Ask: State the recorded -Log KB for this entry: CCc1c(C)n(C(C)C)c2ccc(N(C)C)cc12
Result: 7

Ask: I have this molecule here, CCc1c(C)n(C)c2ccc(N(C)C)cc12 , and I need its recorded -Log KB.
Result: 7.32

Ask: Bench note: what -Log KB did CCc1c(C)[nH]c2ccc(N(C)C)c(Cl)c12 show?
Result: 6.86

Ask: For the molecule CCc1c(C)n(C)c2ccc(NC(=O)Nc3cccc(C(F)(F)F)c3)cc12 , what -Log KB is on record?
Result: 7.16

Ask: Which -Log KB value belongs to CCc1c(C)n(CC)c2ccc(N(C)C)cc12 ?
Result: 7.01

Ask: Fill in: -Log KB of CCc1c(C)[nH]c2ccc(N(C)C)cc12 is ___
Result: 7.3
